Assay: Cytotoxicity against human CCD-18Co cells incubated for 72 hrs by SRB assay
Assay type: toxicity, cell-based
Here, each record is paired with measured IC50 at 72 h data.
test_readout: IC50 at 72 h (nM)

{"columns": ["smiles_str", "test_readout", "endpoint_unit", "experimental_result"],
 "data": [
  ["CCN(CC)c1ccc2c(-c3ccccc3C(=O)N3CCN(C(=O)c4ccc(CCSc5c(F)c(F)c(S(N)(=O)=O)c(NC6CCCCCCCCCCC6)c5F)cc4)CC3)c3ccc(=[N+](CC)CC)cc-3oc2c1.[Cl-]", "IC50 at 72 h", "nM", 550],
  ["COc1cccc2c1C(=O)c1c(O)c3c(c(O)c1C2=O)C[C@@](O)(C(=O)CO)C[C@@H]3O[C@H]1C[C@H](N)[C@H](O)[C@H](C)O1", "IC50 at 72 h", "nM", 269],
  ["CCN(CC)c1ccc2c(-c3ccccc3C(=O)N3CCN(C(=O)c4ccc(CCSc5c(F)c(F)c(S(N)(=O)=O)c(NC[C@]6(C)CCC[C@]7(C)c8ccc(C(C)C)cc8CC[C@@H]67)c5F)cc4)CC3)c3ccc(=[N+](CC)CC)cc-3oc2c1.[Cl-]", "IC50 at 72 h", "nM", 1020]
]}
